Reference source: paper PMC11595612

Tested on: Microsporum gypseum
Test: MIC/MFC by micro-dilution method
Conditions: Nannizzia gypsea

Compound	Qualifying sign	MFC [µg/mL]
O=C(O)c1cccc(O)c1O [compound 5, 2,3-dihydroxybenzoic acid]	=	10
O=C(O)c1cc(O)ccc1O [compound 6, 2,5-dihydroxybenzoic acid]	=	15
CCCCCCCCCCCCCCCC(=O)O [compound 2, hexadecanoic acid]	>	100
CC[C@H](CC[C@@H](C)[C@H]1CC[C@H]2[C@@H]3CC=C4C[C@@H](O[C@@H]5O[C@H](CO)[C@@H](O)[C@H](O)[C@H]5O)CC[C@]4(C)[C@H]3CC[C@]12C)C(C)C [compound 4, β-sitosterol-D-glucoside]	>	100
O=c1c(-c2ccc(O)cc2)coc2cc(O)cc(O)c12 [compound 1, genistein]	>	100

---

Tested on: Staphylococcus aureus (ATTC 25923)
Experiment: MIC/MBC by micro-dilution method
Conditions: Staphylococcus aureus
Recorded endpoint: MBC (µg/mL)

Molecule	Value unit	Qualifying sign	Readout number
O=c1c(-c2ccc(O)cc2)coc2cc(O)cc(O)c12	µg/mL	>	100
O=C(O)c1cc(O)ccc1O [compound 6, 2,5-dihydroxybenzoic acid]	µg/mL	=	5
CCCCCCCCCCCCCCCC(=O)O	µg/mL	>	100
CC[C@H](CC[C@@H](C)[C@H]1CC[C@H]2[C@@H]3CC=C4C[C@@H](O[C@@H]5O[C@H](CO)[C@@H](O)[C@H](O)[C@H]5O)CC[C@]4(C)[C@H]3CC[C@]12C)C(C)C [compound 4, β-sitosterol-D-glucoside]	µg/mL	>	100
O=C(O)c1cccc(O)c1O [compound 5, 2,3-dihydroxybenzoic acid]	µg/mL	=	15
